Every entry's value here was drawn from paper PMC4336329.

tested-on: human ether-à-go-go-related gene (hERG) potassium channel (human, UniProt Q12809)
Sequence (Q12809 whole entry, looked up): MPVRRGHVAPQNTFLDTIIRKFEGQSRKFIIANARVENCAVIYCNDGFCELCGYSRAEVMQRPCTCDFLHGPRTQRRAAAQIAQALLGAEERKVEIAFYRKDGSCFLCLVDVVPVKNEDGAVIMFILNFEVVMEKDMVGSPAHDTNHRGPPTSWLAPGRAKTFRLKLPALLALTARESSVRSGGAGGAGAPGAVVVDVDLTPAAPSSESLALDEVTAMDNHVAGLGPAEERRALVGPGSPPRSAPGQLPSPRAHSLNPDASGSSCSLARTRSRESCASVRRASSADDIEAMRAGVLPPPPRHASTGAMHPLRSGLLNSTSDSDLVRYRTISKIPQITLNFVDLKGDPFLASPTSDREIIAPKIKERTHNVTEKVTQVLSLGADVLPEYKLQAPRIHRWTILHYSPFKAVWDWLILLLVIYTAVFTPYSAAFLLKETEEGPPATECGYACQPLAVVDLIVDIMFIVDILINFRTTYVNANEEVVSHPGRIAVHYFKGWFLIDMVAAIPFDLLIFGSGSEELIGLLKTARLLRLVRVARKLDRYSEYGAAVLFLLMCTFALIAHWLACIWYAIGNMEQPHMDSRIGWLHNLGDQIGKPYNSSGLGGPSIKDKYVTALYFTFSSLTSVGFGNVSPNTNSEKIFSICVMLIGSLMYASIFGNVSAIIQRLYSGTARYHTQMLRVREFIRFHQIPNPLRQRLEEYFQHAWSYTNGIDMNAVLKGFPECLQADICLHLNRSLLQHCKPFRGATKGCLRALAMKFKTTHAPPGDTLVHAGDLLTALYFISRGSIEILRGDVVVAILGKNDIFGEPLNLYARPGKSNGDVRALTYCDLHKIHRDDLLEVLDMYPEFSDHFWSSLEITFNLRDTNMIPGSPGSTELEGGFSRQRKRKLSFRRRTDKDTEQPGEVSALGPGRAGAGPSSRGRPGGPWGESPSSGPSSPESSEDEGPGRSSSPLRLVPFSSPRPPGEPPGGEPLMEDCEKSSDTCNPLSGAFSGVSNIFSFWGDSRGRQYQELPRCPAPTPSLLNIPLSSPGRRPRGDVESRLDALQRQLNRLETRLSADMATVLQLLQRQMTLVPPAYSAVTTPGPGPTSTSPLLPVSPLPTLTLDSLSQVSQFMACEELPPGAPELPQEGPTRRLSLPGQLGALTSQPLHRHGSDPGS
assay-procedure: primary screen, population patch clamp on CHO cells stably expressing hERG; higher = less effect of the substance
The whole screen tested about 310,000 compounds, of which about 14,000 (4.5%) showed an effect of 50% or more. The effect is printed as a negative number. For the sample, strong results were picked, then their nearest neighbours and some compounds at random.
Listed here are compounds together with their documented hERG current change (%, negative = inhibition) at 10uM.
The reply should be a number in %, with the unit left off.

Exercise: Using the record for "CCc1cc2c(CN3CCN(CCO)CC3)cc(=O)oc2cc1O" , state its measured hERG current change (%, negative = inhibition) at 10uM.
Solution: 15.6

* * *

tested-on: human ether-à-go-go-related gene (hERG) potassium channel (human)
assay-procedure: primary screen, population patch clamp on CHO cells stably expressing hERG; higher = less effect of the substance
Experimental: Briefly, Chinese hamster ovary (CHO) cells stably expressing the hERG channel were dislodged from tissue culture flasks and dispensed into PPC plates. […] During the recording, background leak currents were estimated by a 100 ms step to -80 mV from an initial holding potential of -70 mV and subtracted from the subsequent current measurement. The campaign was conducted in two phases using slight differences in recording protocol. […]
Hit rate of the full screen: of about 310,000 compounds, about 14,000 (4.5%) showed an effect of 50% or more. Effects have a minus sign here. For the sample, strong results were picked, then their nearest neighbours and some compounds at random.
measured-quantity: hERG current change (%, negative = inhibition) at 10uM (%)
Numbers only here, please. The scale is %.

Example entries and their recorded answers appear below.
Exercise: Report hERG current change (%, negative = inhibition) at 10uM on human ether-à-go-go-related gene (hERG) potassium channel (human) for this entry: CS(=O)(=O)c1ccc(C(=O)CN2C(=O)NC3(CCCc4ccccc43)C2=O)cc1 (stereo not shown)
Solution: -51.5

Exercise: Enter hERG current change (%, negative = inhibition) at 10uM (test system human ether-à-go-go-related gene (hERG) potassium channel (human)) for Cc1ccc(N2C(=O)Nc3ccc(Br)cc3C2(O)C(=O)NCCN(C)C)cc1C (stereo not shown)
Solution: 21.4

Exercise: Provide the reported hERG current change (%, negative = inhibition) at 10uM (system: human ether-à-go-go-related gene (hERG) potassium channel (human)) for "O=C(Nc1ccccc1C(F)(F)F)C1CCN(C(=O)c2cccs2)CC1"
Solution: 10.5

Exercise: Param request: hERG current change (%, negative = inhibition) at 10uM | system human ether-à-go-go-related gene (hERG) potassium channel (human) | item O=[N+]([O-])c1ccc(S(=O)(=O)NCC(c2cccnc2)N2CCOCC2)cc1 (stereo not shown)
Solution: -22

Exercise: State measured hERG current change (%, negative = inhibition) at 10uM of the molecule "O=C(Nc1ccccc1)c1ccccc1N=Cc1ccccc1O" with human ether-à-go-go-related gene (hERG) potassium channel (human).
Solution: 2.2

Exercise: Lab note: record hERG current change (%, negative = inhibition) at 10uM of CCCCOc1ccc(C(=O)N2CCNC(=O)C2CC(=O)OC(C)C)cc1 (stereo not shown) tested on human ether-à-go-go-related gene (hERG) potassium channel (human).
Solution: 13.1

Exercise: Write down the reported hERG current change (%, negative = inhibition) at 10uM (system: human ether-à-go-go-related gene (hERG) potassium channel (human)) of COc1ccc(C(CNS(=O)(=O)c2ccc(F)cc2)N2CCN(C)CC2)cc1 (stereo not shown)
Solution: -32.5

Exercise: Report value: hERG current change (%, negative = inhibition) at 10uM, system: human ether-à-go-go-related gene (hERG) potassium channel (human), molecule: "COc1cc(OC)c(NC(=O)CCc2nc(-c3ccc(C)cc3)no2)cc1Cl"
Solution: 6.21

New cases:
Exercise: Recall the reported hERG current change (%, negative = inhibition) at 10uM of Cc1cc(Cl)ccc1NC(=O)CN1C(=O)NC2(CCCc3ccccc32)C1=O (stereo not shown) on human ether-à-go-go-related gene (hERG) potassium channel (human) and write it down.
Solution: -1.38

Exercise: Under human ether-à-go-go-related gene (hERG) potassium channel (human), report hERG current change (%, negative = inhibition) at 10uM for CC(NS(=O)(=O)c1ccccc1)C(c1cccs1)N1CCN(C)CC1 (stereo not shown)
Solution: 5.5

Exercise: # return hERG current change (%, negative = inhibition) at 10uM for O=C(CN1C(=O)NC2(CCc3ccccc32)C1=O)c1ccc(F)cc1 (stereo not shown) , test system: human ether-à-go-go-related gene (hERG) potassium channel (human)
Solution: -57.4

Exercise: Output reported hERG current change (%, negative = inhibition) at 10uM of the molecule CC(NS(=O)(=O)c1ccc(Br)cc1)C(c1cccs1)N1CCN(C)CC1 (stereo not shown) on human ether-à-go-go-related gene (hERG) potassium channel (human).
Solution: -53.2

Exercise: Enter hERG current change (%, negative = inhibition) at 10uM (test system human ether-à-go-go-related gene (hERG) potassium channel (human)) for COCCN(C(=O)CCC(=O)Nc1cc(C)on1)C(C(=O)NC1CCCC1)c1ccccc1C (stereo not shown)
Solution: 14.7

Exercise: Give measured hERG current change (%, negative = inhibition) at 10uM for Cc1ccc(S(=O)(=O)NCC(c2ccccc2)N2CCN(CCC#N)CC2)cc1 (stereo not shown) (human ether-à-go-go-related gene (hERG) potassium channel (human)).
Solution: -21.5

Exercise: // output hERG current change (%, negative = inhibition) at 10uM; input Cc1ccc(NC(=O)CN2C(=O)NC3(CCCc4ccccc43)C2=O)c([N+](=O)[O-])c1 (stereo not shown) ; system human ether-à-go-go-related gene (hERG) potassium channel (human);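 further: peak tail current of the secondary pulse compared with the same well before compound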
Solution: -75.6

Exercise: Under human ether-à-go-go-related gene (hERG) potassium channel (human), report hERG current change (%, negative = inhibition) at 10uM for OCCC1CN(Cc2cn[nH]c2C2CCCCC2)CCN1Cc1ccccc1 (stereo not shown)
Solution: 0.824

Exercise: Answer briefly: hERG current change (%, negative = inhibition) at 10uM recorded on human ether-à-go-go-related gene (hERG) potassium channel (human) for COc1ccc(S(=O)(=O)NCC(c2ccc(F)cc2)N2CCN(C)CC2)cc1 (stereo not shown)
Solution: -36.4

Exercise: Please indicate recorded hERG current change (%, negative = inhibition) at 10uM of O=C(CN1C(=O)NC2(CCc3ccccc32)C1=O)c1ccccc1 (stereo not shown) measured with human ether-à-go-go-related gene (hERG) potassium channel (human).
Solution: 15.1

Exercise: Determine reported hERG current change (%, negative = inhibition) at 10uM for "Cc1ccc2nc(-c3ccc(NS(=O)(=O)c4ccc(F)c(F)c4)cc3)sc2c1" ; test system: human ether-à-go-go-related gene (hERG) potassium channel (human).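 Further: peak tail current of the secondary pulse compared with the same well before compound.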
Solution: 23.3

* * *

tested-on: human ether-à-go-go-related gene (hERG) potassium channel (human, UniProt Q12809)
assay-procedure: primary screen, population patch clamp on CHO cells stably expressing hERG; higher = less effect of the substance
Hit rate of the full screen: of about 310,000 compounds, about 14,000 (4.5%) showed an effect of 50% or more. The effect is printed as a negative number. The sample as a whole holds a higher share of strong results than the screen did.
Below, each entry is listed alongside its reported hERG current change (%, negative = inhibition) at 10uM.
Please respond with the number in % and leave the unit unwritten.

Exercise: Give the value of hERG current change (%, negative = inhibition) at 10uM reported for the following: "COCCOC(=O)c1c(N)n(Cc2ccc(OC)cc2)c2nc3ccccc3nc12"
Solution: -75.4

Would you kindly look at the next entry?
Exercise: Give hERG current change (%, negative = inhibition) at 10uM for the following molecule: CCCCCCC1CC(C)(C(=O)C[NH2+]c2nncs2)OC1=O.[Br-] (stereo not shown)
Solution: -66.3

* * *

tested-on: human ether-à-go-go-related gene (hERG) potassium channel (human)
assay-procedure: primary screen, population patch clamp on CHO cells stably expressing hERG; higher = less effect of the substance
Hit rate of the full screen: of about 310,000 compounds, about 14,000 (4.5%) showed an effect of 50% or more. The effect is printed as a negative number. The entries come from a sample that favours strong results as a whole.
measured-quantity: hERG current change (%, negative = inhibition) at 10uM (%)
Respond with the bare value in %.

Below, 6 molecules whose answers are already recorded.
Exercise: State, for human ether-à-go-go-related gene (hERG) potassium channel (human), measured hERG current change (%, negative = inhibition) at 10uM of the molecule listed here: "COc1cccc(CN2CCC(C(=O)N3CCN(c4ccccc4F)CC3)CC2)c1OC.O=C(O)C(=O)O"
Solution: -10.2

Exercise: Recall the reported hERG current change (%, negative = inhibition) at 10uM of "CCCc1nc2ccccc2[nH]1" on human ether-à-go-go-related gene (hERG) potassium channel (human) and write it down.
Solution: 24.6

Exercise: Answer briefly: hERG current change (%, negative = inhibition) at 10uM recorded on human ether-à-go-go-related gene (hERG) potassium channel (human) for "COc1cc(CN2CCC(C(=O)N3CCN(c4ccccc4F)CC3)CC2)cc(OC)c1O.O=C(O)C(=O)O"
Solution: -3.74

Exercise: Give hERG current change (%, negative = inhibition) at 10uM for "CC1CCN(CCc2nc3ccccc3[nH]2)CC1" tested on human ether-à-go-go-related gene (hERG) potassium channel (human).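 Further: peak tail current of the secondary pulse compared with the same well before compound.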
Solution: -63.7

Exercise: Provide hERG current change (%, negative = inhibition) at 10uM, tested on human ether-à-go-go-related gene (hERG) potassium channel (human), for CCOc1ccccc1N1CC(C(=O)N2CCOCC2)CC1=O (stereo not shown) .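 Further: peak tail current of the secondary pulse compared with the same well before compound.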
Solution: 13.9

Exercise: Under human ether-à-go-go-related gene (hERG) potassium channel (human), report hERG current change (%, negative = inhibition) at 10uM for "COc1ccc(CN2CCC(C(=O)N3CCN(c4ccccc4F)CC3)CC2)cc1OC"
Solution: -37

Others:
Exercise: Report its hERG current change (%, negative = inhibition) at 10uM with human ether-à-go-go-related gene (hERG) potassium channel (human) as the test system: "Cc1ccc(S(=O)(=O)NNC(=O)C2CCCCC2)cc1"
Solution: 9.57

Exercise: Fill in: hERG current change (%, negative = inhibition) at 10uM on human ether-à-go-go-related gene (hERG) potassium channel (human), entry "COc1cc(CN2CCC(C(=O)N3CCN(c4ccccc4F)CC3)CC2)ccc1O.O=C(O)C(=O)O"
Solution: -19.9

Exercise: Report the value of hERG current change (%, negative = inhibition) at 10uM obtained on human ether-à-go-go-related gene (hERG) potassium channel (human) for CCOc1ccccc1N1CC(C(=O)N2CCN(Cc3ccc(C#N)cc3)CC2)CC1=O (stereo not shown) .
Solution: -67.3

Exercise: Look up and report hERG current change (%, negative = inhibition) at 10uM, with human ether-à-go-go-related gene (hERG) potassium channel (human) as system, for "Cc1ccc(S(=O)(=O)NCCC(=O)OCC(=O)N(C)c2ccccc2)cc1"
Solution: 4.35
